Parameter % activity: see the listing below.
target: Pim-2(h) (Homo sapiens); assay: Kinase Profiling Assay; type: biochemical; details: peptide 100 μM
Sequence (Q9P1W9 whole entry): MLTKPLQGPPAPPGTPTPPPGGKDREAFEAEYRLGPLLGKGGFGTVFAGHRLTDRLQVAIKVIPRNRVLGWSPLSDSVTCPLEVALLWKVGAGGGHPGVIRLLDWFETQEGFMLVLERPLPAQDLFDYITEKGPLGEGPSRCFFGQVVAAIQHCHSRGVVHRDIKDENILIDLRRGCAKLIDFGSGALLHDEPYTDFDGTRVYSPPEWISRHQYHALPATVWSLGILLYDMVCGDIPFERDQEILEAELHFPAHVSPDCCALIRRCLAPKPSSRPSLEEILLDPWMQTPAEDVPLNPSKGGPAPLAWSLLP
Use % as the unit, but write only the number.

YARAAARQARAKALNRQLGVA (Mammal) [MMI-0200] = 74
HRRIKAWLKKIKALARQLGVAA (Mammal) [MMI-0500] = 46
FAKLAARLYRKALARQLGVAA [MMI-0300] = 76

Attention now turns to another entry.
Measured % activity of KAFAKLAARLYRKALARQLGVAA [MMI-0400] : 92

----------
Biological target: ALK4(h) (Homo sapiens, UniProt P36896)
Sequence (P36896 24-505): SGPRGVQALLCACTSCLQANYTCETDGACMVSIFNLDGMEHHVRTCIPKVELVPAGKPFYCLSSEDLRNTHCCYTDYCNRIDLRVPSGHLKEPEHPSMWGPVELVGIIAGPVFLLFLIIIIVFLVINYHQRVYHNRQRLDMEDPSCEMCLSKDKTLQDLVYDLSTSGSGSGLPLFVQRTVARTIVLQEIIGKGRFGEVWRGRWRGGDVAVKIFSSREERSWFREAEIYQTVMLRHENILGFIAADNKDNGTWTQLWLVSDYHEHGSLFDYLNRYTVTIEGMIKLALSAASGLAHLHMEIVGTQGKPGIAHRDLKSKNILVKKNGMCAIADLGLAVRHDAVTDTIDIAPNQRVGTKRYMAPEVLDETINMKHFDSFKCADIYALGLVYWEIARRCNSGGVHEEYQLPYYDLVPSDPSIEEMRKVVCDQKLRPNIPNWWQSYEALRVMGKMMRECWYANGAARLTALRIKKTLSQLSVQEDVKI
Experiment: Kinase Profiling Assay
Assay type: biochemical
Details: peptide 100 μM
No end group written: not given here.
Parameter % activity: see the listing below.
Use % as the unit, but write only the number.

Check out these entries, answers already filled in.
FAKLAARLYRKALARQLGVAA [MMI-0300] = 140
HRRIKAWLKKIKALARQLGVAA (Mammal) [MMI-0500] = 81
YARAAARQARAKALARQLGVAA [MMI-0100] = 124
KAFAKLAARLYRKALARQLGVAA [MMI-0400] = 130

Attention now turns to another entry.
Measured % activity of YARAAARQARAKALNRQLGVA (Mammal) [MMI-0200] : 152
